Entry source: ChEMBL document CHEMBL3879914

biological target: UniProt P41587; test: Antagonist activity at recombinant human N-terminal signal peptide/FLAG epitope-tagged Rluc8-fused VIPR2 expressed in HEK293 cells assessed as inhibition of VIP-induced human mVenus-beta-arrestin2 binding at 1 uM preincubated for 5 mins with luciferin, coelenterazine H followed by VIP addition measured after 5 mins by BRET assay relative to control; assay type: cell-based
Sequence (P41587 whole entry, the tested form may be a part): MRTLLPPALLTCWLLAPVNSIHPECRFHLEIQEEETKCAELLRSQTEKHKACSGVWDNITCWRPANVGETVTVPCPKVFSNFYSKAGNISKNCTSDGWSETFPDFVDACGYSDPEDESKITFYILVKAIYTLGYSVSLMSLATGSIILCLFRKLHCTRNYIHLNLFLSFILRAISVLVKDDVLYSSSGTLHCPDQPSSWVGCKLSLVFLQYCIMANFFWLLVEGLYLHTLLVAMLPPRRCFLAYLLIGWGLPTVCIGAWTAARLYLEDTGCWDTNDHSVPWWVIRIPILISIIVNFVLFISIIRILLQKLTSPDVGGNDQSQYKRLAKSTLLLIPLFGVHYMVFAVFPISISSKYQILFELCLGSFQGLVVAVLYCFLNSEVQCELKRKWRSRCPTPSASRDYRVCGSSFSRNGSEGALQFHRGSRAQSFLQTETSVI
experimental_endpoint: inhibition (%)

{"molecule_smiles": "O=C(NC[C@@H](O)C[C@@H](Cc1ccccc1)C(=O)N[C@H]1c2ccccc2C[C@H]1O)C(Cl)Cl", "measurement_target": "UniProt P41587", "test_result": 17.4}
{"molecule_smiles": "CC(=O)Nc1ccc(S(=O)(=O)NC[C@H](C[C@@H](Cc2ccccc2)C(=O)N[C@H]2c3ccccc3C[C@H]2OC(C)=O)OC(C)=O)cc1", "measurement_target": "UniProt P41587", "test_result": 0.2}
{"molecule_smiles": "O=C(CCCCl)NC[C@@H](O)C[C@@H](Cc1ccccc1)C(=O)N[C@H]1c2ccccc2C[C@H]1O", "measurement_target": "UniProt P41587", "test_result": 24.3}
{"molecule_smiles": "C#CCNC(=O)[C@@H](Cc1ccccc1)C[C@H](O)CNS(=O)(=O)c1ccc([N+](=O)[O-])cc1", "measurement_target": "UniProt P41587", "test_result": 3.4}

(I) C#CCCCC(=O)NC[C@@H](O)C[C@@H](Cc1ccccc1)C(=O)N[C@H]1c2ccccc2C[C@H]1O
(II) O=C(N[C@H]1c2ccccc2C[C@H]1O)[C@H](Cc1ccccc1)C[C@H](O)CNS(=O)(=O)c1ccccc1F
Thinking about recorded inhibition values, which is higher, I or II ? Record your answer as the label of the chosen record.
II

(P) O=C(NC[C@@H](O)C[C@@H](Cc1ccccc1)C(=O)N[C@H]1c2ccccc2C[C@H]1O)c1ccccc1[N+](=O)[O-]
(Q) O=C([C@@H](Cc1ccccc1)C[C@H](O)CNS(=O)(=O)c1ccc([N+](=O)[O-])cc1)N1CCCCC1
(R) CC(C)Nc1ccc(S(=O)(=O)NC[C@@H](O)C[C@@H](Cc2ccccc2)C(=O)N[C@H]2c3ccccc3C[C@H]2O)cc1
Please list the entries, largest inhibition first. # answer = labels listed in requested order
P, Q, R
(P: 35.1%, Q: 9.2%, R: -2%)
